Attribute: percentage of EdU-negative
System: MCF7;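 further: secreted proteins added to cultured cells, EdU pulse at the end, nuclei found by Hoechst imaging, EdU status from nuclear versus surrounding ring intensity ratio, PBS as neutral control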
Assay: percentage of EdU-negative (G0-arrested) nuclei per well, 72 h; higher = more G0 arrest
Details: protein concentration 0.3125 µM; reference: sequence is the full UniProt precursor, the tested protein was the secreted form or ectodomain

[
  {
    "biopolymer-sequence": "MKTLFLGVTLGLAAALSFTLEEEDITGTWYVKAMVVDKDFPEDRRPRKVSPVKVTALGGGNLEATFTFMREDRCIQKKILMRKTEEPGKFSAYGGRKLIYLQELPGTDDYVFYCKDQRRGGLRYMGKLVGRNPNTNLEALEEFKKLVQHKGLSEEDIFMPLQTGSCVLEH [Q9NY56]",
    "percentage of EdU-negative / %": 25.7
  },
  {
    "biopolymer-sequence": "MALSFSLLMAVLVLSYKSICSLGCDLPQTHSLGNRRALILLAQMGRISHFSCLKDRHDFGFPEEEFDGHQFQKAQAISVLHEMIQQTFNLFSTEDSSAAWEQSLLEKFSTELYQQLNDLEACVIQEVGVEETPLMNEDSILAVRKYFQRITLYLTEKKYSPCAWEVVRAEIMRSLSFSTNLQKRLRRKD",
    "percentage of EdU-negative / %": 46.8
  },
  {
    "biopolymer-sequence": "MANRGPAYGLSREVQQKIEKQYDADLEQILIQWITTQCRKDVGRPQPGRENFQNWLKDGTVLCELINALYPEGQAPVKKIQASTMAFKQMEQISQFLQAAERYGINTTDIFQTVDLWEGKNMACVQRTLMNLGGLAVARDDGLFSGDPNWFPKKSKENPRNFSDNQLQEGKNVIGLQMGTNRGASQAGMTGYGMPRQIL",
    "percentage of EdU-negative / %": 25.2
  },
  {
    "biopolymer-sequence": "MFPFYSCWRTGLLLLLLAVAVRESWQTEEKTCDLVGEKGKESEKELALVKRLKPLFNKSFESTVGQGSDTYIYIFRVCREAGNHTSGAGLVQINKSNGKETVVGRLNETHIFNGSNWIMLIYKGGDEYDNHCGKEQRRAVVMISCNRHTLADNFNPVSEERGKVQDCFYLFEMDSSLACSPEISHLSVGSILLVTFASLVAVYVVGGFLYQRLVVGAKGMEQFPHLAFWQDLGNLVADGCDFVCRSKPRNVPAAYRGVGDDQLGEESEERDDHLLPM",
    "percentage of EdU-negative / %": 24.8
  }
]
